Molecular target: Nuclear receptor ROR-gamma (Mus musculus) (UniProt P51450)
Sequence (P51450 whole entry, looked up): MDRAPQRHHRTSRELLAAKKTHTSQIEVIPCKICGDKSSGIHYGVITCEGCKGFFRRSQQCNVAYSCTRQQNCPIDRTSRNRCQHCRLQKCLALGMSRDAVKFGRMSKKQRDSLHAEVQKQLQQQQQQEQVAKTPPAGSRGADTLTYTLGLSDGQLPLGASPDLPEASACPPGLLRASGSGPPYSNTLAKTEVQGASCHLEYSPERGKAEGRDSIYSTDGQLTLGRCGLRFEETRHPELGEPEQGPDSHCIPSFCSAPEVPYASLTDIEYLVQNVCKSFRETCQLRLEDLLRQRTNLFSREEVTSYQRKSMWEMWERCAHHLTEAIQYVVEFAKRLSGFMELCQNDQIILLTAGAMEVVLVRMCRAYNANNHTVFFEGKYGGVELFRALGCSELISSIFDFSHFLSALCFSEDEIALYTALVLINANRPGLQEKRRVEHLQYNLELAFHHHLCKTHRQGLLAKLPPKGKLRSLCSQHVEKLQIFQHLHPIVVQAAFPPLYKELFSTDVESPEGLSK
Assay: qHTS for inhibitors of ROR gamma transcriptional activity; further: nearly all actives have a fitted effect of over 60% in size
Conditions: Drosophila S2 Gal4-RORgamma UAS-luciferase reporter, 20 h; series mostly up to 53.6 µM
The whole screen tested about 310,000 compounds, of which about 17,000 (5.5%) were called active. Inconclusive results (about 11%) are left out. The call rests on the fitted dose curve; in most records, active means well fitted inhibition curve with a large enough effect; inconclusive means small, poorly fitted or top-dose-only effect, or effect the other way; inactive means no such curve, though single readings can be large or run the other way. Shown is part of a subset that was picked to be rich in actives.
Your reply should match one of these outcome classes. active, inactive

Worked cases, answers included:
COc1ccc(CNC(=O)c2c[nH]c3c(OC)cc(OC)cc3c2=O)cc1 ... inactive
Cc1ccc(S(=O)(=O)Oc2ccc(/C=N/NC(=O)c3ccncc3)cc2)cc1 ... inactive
O=C(N/N=C\c1cccc(Br)c1)c1ccccc1-n1cccc1 ... inactive

What call does the record list for O=C(CN1CCN(c2ccc(F)cc2)CC1)Nc1cccc(C(F)(F)F)c1 ?
inactive

Subsequent entry: CSCCC(NS(=O)(=O)c1ccc(C)cc1)C(=O)NCCc1c[nH]c2ccccc12 (stereo unspecified)
inactive

Subsequent entry: NC(=O)Cn1cc(/C=N\NS(=O)(=O)c2ccccc2)c2ccccc21
inactive

Subsequent entry: CCCCNC(=O)CCn1c(=S)[nH]c2cc3c(cc2c1=O)OCO3
inactive

Subsequent entry: Cc1ccc(C)c(N2CCN(C(=O)CCCCn3c(=O)[nH]c4ccccc4c3=O)CC2)c1
inactive

----------
Molecular target: Nuclear receptor ROR-gamma (Mus musculus)
Assay: qHTS for inhibitors of ROR gamma transcriptional activity; further: nearly all actives have a fitted effect of over 60% in size
Conditions: Drosophila S2 Gal4-RORgamma UAS-luciferase reporter, 20 h; series mostly up to 53.6 µM
Out of some 310,000 compounds screened, about 17,000 (5.5%) were called active. Roughly 11% stayed inconclusive and do not appear here. Calls come from the whole dose curve; as a rule, active = well fitted inhibition curve with a large enough effect; inconclusive = small, poorly fitted or top-dose-only effect, or effect the other way; inactive = no such curve, though single readings can be large or run the other way. Only a selection was taken, and actives are over-represented in it overall.
Your reply should match one of these outcome classes. label 1 for active, label 0 for inactive

C/C(=N\NC(N)=S)c1ccncc1 ... label 0
C/C(=N\NC(=S)NC(C)C)c1ccc(C(C)(C)C)cc1 ... label 1
COc1ccccc1Oc1nc(-c2cccnc2)nc2ccccc12 ... label 0
Cc1ccc(Oc2nc(-c3ccccn3)nc3ccccc23)cc1 ... label 1
CC(C)(C)Nc1nc(-c2ccccn2)nc2ccccc12 ... label 1

What call does the record list for O=C(Nc1cccc(-c2nc3ccccc3[nH]2)c1)c1ccc(C(=O)Nc2cccc(-c3nc4ccccc4[nH]3)c2)cc1 ?
label 1

Subsequent entry: Cc1cc(C)n(CC(O)COc2ccc(C(C)(C)C)cc2)n1 (stereo not drawn)
label 0

Subsequent entry: CCc1ccc(NC(=O)CSc2nc3ccccc3c(=O)n2CCN2CCOCC2)cc1
label 0

Subsequent entry: C/C(=N\NC(N)=S)c1cccnc1
label 0

Subsequent entry: N#Cc1ccc(Oc2cc(C(F)(F)F)nc(-c3ccccn3)n2)cc1
label 0

Subsequent entry: O=C(CSc1ccc(-c2ccccn2)nn1)Nc1ccccc1
label 0

Subsequent entry: COc1ccc(Cc2nc(-c3ccccn3)no2)cc1OC
label 0

Subsequent entry: COCC1CCN(C(=O)C2CCC(=O)N(Cc3cccc(C(F)(F)F)c3)C2)CC1 (stereo not drawn)
label 0

Subsequent entry: O=C(/C=C/c1ccco1)Nc1cccc(-c2nc3ccccc3[nH]2)c1
label 0

Subsequent entry: COCCn1c(SCC(=O)N2CCCCCC2)nc2c(c1=O)SCC2
label 0

Subsequent entry: COc1ccc(Sc2nc(-c3ccccc3)ncc2OC)cc1
label 0

Subsequent entry: COc1cnc(-c2ccccn2)nc1Oc1ccc(C(C)(C)C)cc1
label 1

Subsequent entry: Cc1ccc(-c2nc3ccccc3[nH]2)cc1NC(=O)c1sc2ccccc2c1Cl
label 0

Subsequent entry: CC(NC(=O)c1cc2cc(Cl)ccc2oc1=N)c1ccccc1 (stereo not drawn)
label 0

Subsequent entry: CCn1c(SCC(=O)Nc2ccc(C)cc2)nc2nc3c(cc2c1=O)CCCC3
label 1

Subsequent entry: CN1C(=O)[C@H]2[C@@H](C3CC3)N3C(=O)CN(Cc4ccccc4)C(=O)[C@@]3(C)[C@H]2C1=O
label 0

Subsequent entry: CC(C)[C@@H]1COC(c2cccc(C3=N[C@H](C(C)C)CO3)c2)=N1
label 0

Subsequent entry: COc1cc(/C=N/N2CCN(c3ccccc3)CC2)ccc1OC(C)=O
label 0

----------
Target: Nuclear receptor ROR-gamma (Mus musculus)
Experiment: qHTS for inhibitors of ROR gamma transcriptional activity; further: nearly all actives have a fitted effect of over 60% in size
Conditions: Drosophila S2 Gal4-RORgamma UAS-luciferase reporter, 20 h; series mostly up to 53.6 µM
Among all 310,000 compounds or so, about 17,000 (5.5%) were called active. Roughly 11% stayed inconclusive and do not appear here. Calls follow the shape of the dose curve; as a rule, active = well fitted inhibition curve with a large enough effect; inconclusive = small, poorly fitted or top-dose-only effect, or effect the other way; inactive = no such curve, though single readings can be large or run the other way. This is one part of a sample in which actives are shown more often than they occur.
Your reply should match one of these outcome classes. true (1) (active), false (0) (inactive)

CCn1nc(NC(=O)c2ccco2)c2cc3ccc(C)cc3nc21 ... false (0)
COc1ccc(C(=O)NNC(=S)NC(=O)c2ccccc2)cc1 ... true (1)
COCCCNC(=S)N(Cc1ccccc1)Cc1ccc(F)cc1 ... true (1)
COc1ccc(OCC(=O)Nc2ccc(NC(=O)c3ccco3)c(C)c2)cc1 ... false (0)
CCC(C)Sc1nc2c(cnn2-c2ccc(F)cc2)c(=O)[nH]1 (stereo unspecified) ... false (0)
CC(=O)NC(=S)NNC(=O)c1ccc(Br)cc1 ... true (1)
Cn1nnnc1SCC(=O)NNC(=O)c1ccc(Br)cc1 ... false (0)
CCCc1ccc(OCC(=O)NNC(=S)NC(=O)c2ccco2)cc1 ... true (1)
Cc1cc(C)c2[nH]c(=O)c(CN(Cc3ccccc3)C(=S)NCCCN(C)C)cc2c1 ... false (0)
COCCNC(=S)N(Cc1cccnc1)Cc1ccc(OC)c(OC)c1 ... false (0)

Now consider a different compound.
What call does the record list for CCCCc1nc2cc(C(=O)N3CCCCC3CCO)ccc2o1 (stereo unspecified) ?
false (0)

----------
Target: Nuclear receptor ROR-gamma (Mus musculus) (UniProt P51450)
Assay: qHTS for inhibitors of ROR gamma transcriptional activity; further: nearly all actives have a fitted effect of over 60% in size; further: potency means the concentration at half of the fitted maximal effect
Details: Drosophila S2 Gal4-RORgamma UAS-luciferase reporter, 20 h; series mostly up to 53.6 µM
The whole screen tested about 310,000 compounds, of which about 17,000 (5.5%) were called active. Not shown: some 11% with an inconclusive outcome. The entries come from a sample that favours actives as a whole.
Property: Potency

O=C(CCN1c2ccccc2Sc2ccccc21)Nc1ccccc1 ... inactive
N#Cc1ccc(C(=O)Nc2cccc3cccnc23)c(F)c1 ... inactive
C=CCN1CCN(C(=O)CCCc2ccccc2)CC1 ... 5.62 µM (active)
CCN1/C(=C/C(=S)Nc2ccccc2)Sc2ccccc21 ... 3.16 µM (active)

# lookup: Potency of CCCc1nc2sc3c(c2c(=O)n1NC(=O)CCCl)CCCC3
inactive

Subsequent entry: CN(C)CCCn1c(=O)n(Cc2ccccc2)c(=O)c2c3c(sc21)CCCCC3
inactive

Subsequent entry: Cc1cccc(C(=O)NCCCN2CCCC2=O)c1
inactive

Subsequent entry: C=CCOc1ccccc1NC(=O)CN1C(=O)CNC1=O
inactive

Subsequent entry: O=C(Nc1ccnc(-c2ccncc2)n1)c1cccs1
inactive

Subsequent entry: COC(=O)c1cc(NC(=O)c2ccco2)ccc1N1CCOCC1
inactive

Subsequent entry: O=C1NCC(=O)N(Cc2ccccc2)/C1=C/c1ccccc1
inactive

Subsequent entry: COc1cc(C(C(=O)NC2CCCC2)N(C(=O)c2ccco2)c2ccccc2C(C)=O)cc(OC)c1OC (configuration not stated)
inactive

Subsequent entry: COc1ccc(-c2nnc3ccc(SCc4ccccc4)nn23)cc1
inactive

----------
Molecular target: Nuclear receptor ROR-gamma (Mus musculus) (UniProt P51450)
Experiment: qHTS for inhibitors of ROR gamma transcriptional activity; further: nearly all actives have a fitted effect of over 60% in size
Details: Drosophila S2 Gal4-RORgamma UAS-luciferase reporter, 20 h; series mostly up to 53.6 µM
Description: NIH Molecular Libraries Probe Production Network [MLPCN] NIH Chemical Genomics Center [NCGC] […] Small molecule inhibitors of ROR gamma activity are detected by a decrease in luciferase reporter activity. […]
In all, about 310,000 compounds went through this assay and about 17,000 (5.5%) were called active. Another 11% or so got no clear call; they are omitted. Calls follow the shape of the dose curve; as a rule, active = well fitted inhibition curve with a large enough effect; inconclusive = small, poorly fitted or top-dose-only effect, or effect the other way; inactive = no such curve, though single readings can be large or run the other way. What follows is part of a selection rich in actives, with near analogues and random picks from the rest.
Your reply should match one of these outcome classes. class 1 (active), class 0 (inactive)

What call does the record list for C=CCNC(=S)NNC(=O)c1ccc(Br)o1 ?
class 1

Subsequent entry: CCOC(=O)c1c(C)[nH]c2c1-c1ccccc1C(=O)C2=O
class 1

Subsequent entry: COc1ccc(-c2nc3ccccc3n2CCC(C)C)cc1OC
class 1

Subsequent entry: CCOC(=O)c1c(C)nc(-c2ccccc2)nc1NC(=O)C(C)C
class 0

Subsequent entry: CCOc1cccc(-n2nnnc2-c2ccc(OC)cc2)c1
class 0

Subsequent entry: Cc1ccc2cc(/C=N/Nc3ccc(C(=O)O)cc3)c(Cl)nc2c1
class 0

Subsequent entry: COc1ccc(NC(=O)COC(=O)Cn2c(C)nc3ccccc32)cc1OC
class 0

Subsequent entry: COc1ccc(-n2nnnc2SCC(=O)Nc2ccccc2)cc1
class 0

Subsequent entry: O=C(N/N=C/C=C/c1ccccc1)C1CC1(c1ccccc1)c1ccccc1 (stereo not drawn)
class 1

Subsequent entry: CCOC(=O)c1c(C)[nH]c(=S)c(C#N)c1-c1ccccc1
class 1

Subsequent entry: O=C(N/C(=C/c1ccc(Cl)cc1)C(=O)N1CCCCC1)c1ccco1
class 0

Subsequent entry: CCOc1ccccc1-c1nc(CN2CCC(C(=O)N3CCOCC3)CC2)c(C)o1
class 0

Subsequent entry: C=CCSc1nnc(N2C(=O)C(O)=C(C(=O)c3ccco3)C2c2ccc(F)cc2)s1 (stereo not drawn)
class 0

Subsequent entry: CCOC(=O)N1CCN(S(=O)(=O)N2CCCC(C(=O)NCCCN3CCC(C)CC3)C2)CC1 (stereo not drawn)
class 0
